experimentalTarget: Histidine--tRNA ligase (Leishmania infantum) (UniProt A4I591)
Sequence (whole entry): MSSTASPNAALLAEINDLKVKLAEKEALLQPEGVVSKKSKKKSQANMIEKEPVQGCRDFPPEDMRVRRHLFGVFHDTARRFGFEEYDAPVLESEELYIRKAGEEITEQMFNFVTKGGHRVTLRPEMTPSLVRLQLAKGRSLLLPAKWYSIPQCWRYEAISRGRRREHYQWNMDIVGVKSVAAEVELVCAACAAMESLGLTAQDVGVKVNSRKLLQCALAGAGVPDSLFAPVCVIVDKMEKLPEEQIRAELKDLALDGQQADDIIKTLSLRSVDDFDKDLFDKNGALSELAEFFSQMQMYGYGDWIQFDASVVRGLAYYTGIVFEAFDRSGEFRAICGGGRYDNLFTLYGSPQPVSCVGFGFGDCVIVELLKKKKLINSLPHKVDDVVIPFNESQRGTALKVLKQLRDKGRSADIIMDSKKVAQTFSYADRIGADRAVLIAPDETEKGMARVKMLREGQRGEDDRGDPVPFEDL
method: Leishmania infantum Histidine tRNA synthetase (LdHisRS)
Type: functional
Set-up: scale not given: in the data most compounds retested in dose-response had high values
particulars: 30 µM
Screen size: about 69,000 compounds; about 420 (0.61%) showed an effect of 50% or more. The list comes from a sample in which strong results are over-represented; it also holds close analogues and randomly drawn compounds.
For each of the compounds below, state its Percent Effect.
Value expressed in %; do not type the unit.

Query: Test system Histidine--tRNA ligase (Leishmania infantum) (UniProt A4I591); read-out Percent Effect; what value for CN1CCN(Cc2nc3c(s2)CCCC3)[C@H]2CS(=O)(=O)C[C@H]21 ?
Reply: 18.3

Query: Also check Nc1cc(N2CCCC(COc3ccc(F)cc3)C2)ncn1 (centres undefined)
Reply: 28.9

Query: Also check c1ccc(O[C@H]2C[C@@H]3CN(Cc4cnccn4)C[C@@H]3C2)cc1
Reply: 15.9

Query: Also check CC(C)(C)n1ncc2c1NC(=O)CC2c1ccc(C(=O)O)cc1 (centres undefined)
Reply: 26

Query: Also check CCS(=O)(=O)N1C[C@H]2C[C@H](C(=O)N(C)C)[C@@H](C1)O2
Reply: 6.57

Query: Also check CCCS(=O)(=O)N1C[C@@H](Oc2ccccn2)[C@H]2OCCC[C@H]21
Reply: 9.73

Query: Also check Cc1cc(CNc2ccc3nc(C4CC4)sc3c2)no1
Reply: 27.6

Query: Also check CN1CCC(O)(CCNC(=O)[C@@]23CNC[C@@H]2CN(C2CCCC2)C3)CC1
Reply: 10.3

Query: Also check Cc1cccc(CN2C[C@H]3OC(=O)N(CCCN4CCOCC4)[C@H]3C2)n1
Reply: 22.3

Query: Also check CS(=O)(=O)N1C[C@@H](NC(=O)c2ccno2)[C@@H]2OCCC[C@@H]21
Reply: -4.54

Query: Also check O=C1CC(c2cccnc2)c2c(c(C(=O)O)cn2-c2ccc(Cl)cc2)N1 (centres undefined)
Reply: 27.2

Query: Also check CN(C[C@@H]1CCC[C@@H]2CN(c3ncccn3)C[C@@H]21)C1CC1
Reply: 23.3

Query: Also check COc1cccc(CNc2nc(C)cc(C)n2)c1OC
Reply: 21.9

Query: Also check Cc1csc(N2CCN(C(=O)CCC(=O)c3ccc(C)s3)CC2)n1
Reply: 50

Query: Also check CCOc1c(CNCCCn2ccnc2)cc(Cl)cc1OC
Reply: 10

Query: Also check Cc1noc(C)c1CNc1ccc2nc(C3CC3)sc2c1
Reply: 75.9

Query: Also check Cc1ccc(CN2CC[C@H]3C[C@@H](c4nc(C5CC5)cs4)O[C@@H]3C2)o1
Reply: 19.8

Query: Also check Cc1cc(C)cc(NC(=O)Nc2c(O)oc3ccccc3c2=O)c1
Reply: 16.1

Query: Also check O=C(CC1CC1)N[C@@H]1CN(C(=O)c2ccsc2)C[C@@H]2CCCO[C@@H]21
Reply: 0.901

Query: Also check CC(C)(C)CC(=O)N1CC[C@H]2NC(=O)N(Cc3ccccc3)C(=O)[C@H]21
Reply: 30.6

Query: Also check Cc1nc(CN2CCc3nc(N4CCCC4)nc(NC(C)C)c3C2)cs1
Reply: 92.3

Query: Also check CC(CNC(=O)c1cnccn1)Oc1ccc(F)cc1 (centres undefined)
Reply: 5.31

Query: Also check COc1ccc(Oc2ncccc2F)cc1CN1CCCC1
Reply: 15.8

Query: Also check Cc1noc(C)c1CNc1cccc(C(=O)N2CCCC(O)C2)c1 (centres undefined)
Reply: 27.4

Query: Also check O=C(C1CCC1)N1CCN(Cc2ccc(F)cc2)[C@H]2CS(=O)(=O)C[C@H]21
Reply: 17.8

Query: Also check O=C(Cc1ccco1)N1C[C@H]2CCC[C@@]2(COCC2CC2)C1
Reply: 20

Query: Also check O=C(c1ccsc1)N1C[C@@H]2CCN(C(=O)c3cccc(F)c3)[C@@H]2C1
Reply: 11.7

Query: Also check Cc1noc(C)c1CNc1cccc(C(=O)N(C)c2ccccc2)c1
Reply: -0.855

Query: Also check Cc1cc(CNc2ccc(C(F)(F)F)cc2)no1
Reply: 17

Query: Also check Cc1nc(CN2CCO[C@H]3[C@H](OCC(=O)N(C)C)CC[C@@H]32)cs1
Reply: -9.73

Query: Also check CC(C)(C)NC[C@@H]1CCC[C@@H]2CN(Cc3csnn3)C[C@@H]21
Reply: 17.1

Query: Also check CC(=O)N1CCN(C(=O)CNc2ccc3sccc3c2)CC1
Reply: 27.2

Query: Also check Cc1cc(CNc2ccc3nc(C)sc3c2)no1
Reply: 58.6

Query: Also check CC(C)N(C)C[C@H]1OC[C@@H]2CCN(Cc3cccc(C#N)c3)C[C@@H]21
Reply: 10

Query: Also check O=C([C@@H]1C[C@@H]2CCN(Cc3ccco3)C[C@H]2O1)N1CCCO1
Reply: 15

Query: Also check COCCN1C[C@H]2CN(C(=O)c3ccno3)CCN2C1=O
Reply: 11.1

Query: Also check Cc1ncc(C(=O)N2CC[C@@]3(O)CCN(C(=O)N(C)C)C[C@H]3C2)cn1
Reply: 10.6

Query: Also check CC(=O)N1[C@H](CN(C)C)C[C@@H]2CN(C(=O)c3ccsc3)CC[C@@H]21
Reply: 15.4

Query: Also check Cc1ccc(C(=O)N2CC[C@@]3(O)CCN(C(=O)N(C)C)C[C@H]3C2)cc1Cl
Reply: -2.13

Query: Also check Cc1csc(N2CCN(C(=O)c3ccc(C)s3)CC2)n1
Reply: 11.4

Query: Also check Cc1nc(CN2C[C@@H]3CN(C(=O)c4cccn4C)C[C@@H]3C2)cs1
Reply: -1.92

Query: Also check O=C(c1ccccc1)N1CC[C@H]2C[C@@H](c3nnc(C4CC4)o3)O[C@@H]2C1
Reply: 13.6

Query: Also check CC(C)Nc1nc(N2CCCC2)nc2c1CN(C)CC2
Reply: 5.56

Query: Also check Cc1ccc(CN2C[C@@H]3COC[C@@H](CC(=O)N4CCOCC4)[C@@H]3C2)s1
Reply: 20.5
